Experiment: yeast display, Sf9 membrane polyspecificity reagent, FACS + sequencing; frameworks hold sequencing errors
measurementName: polyreactivity (PSR sort gate)

Study these solved cases before continuing.
QVQHEESGGGLVQAGGSLRLSCAASGSIFTPTPKGCYRQAPGKERELVAAISSSSDRTYYADSVKGRFTISRDNAKNTVYLEMNSLKPEDTAVYFCAAYAQKRYYWGQGTQVNVSS    high polyreactivity
QVQLVESGGGLVQAGGSLRLSCAASGRILGKYAMGWYRQAAGKERELVAAIRLRGGSTYYADSVKGRFTISRDNAKNTVYLQMNSLKPEDTAVYYCAARYWDRSQAYNYWGQGTQVTVSS    high polyreactivity
QVQLVESGGGLVQAGGSLRLSCAASGLIFRKYAMGWYRQAPGKERELVAAISRSGGSTYYADSVKGRFTISRDNAKTTVYLQMNSLKPEDTAVYYGAAQQHYGDGYWGQGTQVTVSS    high polyreactivity
QVQLVESGGGLVQAGGSLRISCAASGIIFYLYTMGWYRQAPGKERELVAAITRGGSTYYADSVKGRFTISRDNAKNTVYLQMNSLKPEDTAVYYCAAKHGPGYRRWYDYWGQGTQVTVSS    high polyreactivity
QVQLVESGGGLVQAGGSLRLSCAASGRIFYRYVMGWYRQAPGKERELVAAITSSGGSTYYADSVKGRFTISRDNAKHTVYLQMISLQPEDTAVYYCAADRYTRYRYNYWGQGTQVTVSS    high polyreactivity

Exercise: Supply measured polyreactivity (PSR sort gate) of "QVQLVESGGGLVQAGGSLRLSCAASGFTFPNYAMGWYRQAPGKERELVAAITSGGGRTNYADSVKGRFTISRDNAKNTVYLQMNSLKPVDTAVYYCAKTRVRGSEFGYWGQGTQVTVSS" in your reply.
Key: low polyreactivity

Exercise: Output polyreactivity (PSR sort gate) of "QVQLVESGGGLVQAGGSLRLSCAASGTTFAWNTMGWYRQAPGKERELVARISRRSVSTYYADSVKGRFTISRDNAKNTVYLQMNSLKPEDTAVYYCAADYFSYQKYDYWGQGTQVTVSS"
Key: low polyreactivity

Exercise: Dear colleague, please send me the reported polyreactivity (PSR sort gate) for "QVQHVDSAGGIVQAGGILRLSCAASGPTFGKYAMGWYRQQHGKERELVATITRTARTNYADSVKGRFTSSRDNAKNTVYLQMNSRKPEDTAVYYCDAPWRYTFPPQVYGQSYGYWGQGTQVTVSS" when you can.
Key: high polyreactivity

Exercise: Provide polyreactivity (PSR sort gate) value for the following sequence: "QLQLVESGGGLFQAGGSLRISCAPSGRIFKLNAMGWYRQAPGKEMELVAAINSGTRTYYADSVKGRFTISSYNAKNTVYLQLNSLKPEDTAVYYCAAEGVWWYSRYDYWGQGTQVTVSS"
Key: high polyreactivity

Exercise: Given the sequence "QVQLVESGGGLVQAGGSLRLSCAASGLIFTYYAMGWYRPAPGKERELVASINYSGGSTYYADSVKGRFTISRDNAKNSVYLHMNSLKPEDTAVYYCAARRVTQTEGPMGYWGQGTQVTVSS" , write its reported polyreactivity (PSR sort gate).
Key: low polyreactivity

Exercise: Specify measured polyreactivity (PSR sort gate) for "QVQLVESGGGIVQAGGSLRLSCAASGSILSYYAMGGYRQAPGNEREFVAAISWGTITNYADSVKGRFTISRDNAKKTVYLQMNSLKPEDTAVYYCNADPYGWYSSDYDYWGQGTQVTVSS" .
Key: low polyreactivity

Exercise: Supply recorded polyreactivity (PSR sort gate) for "QVQLVESGGGLVQAGGSLRLICAASGSTLKYYAMGWSRPAPGKERELVARITRSSGSTYYADSVKGRFTISRDNAKNTVYLQMNSMKPEDTAVYYCNKVYKSYYWGGYDWGQGTQVTVSS" here.
Key: high polyreactivity

Exercise: Identify polyreactivity (PSR sort gate) associated with the sequence "QVQLVESGGGLVQAGGSLRLSCAASGIIFGWYAMGWYRQAPGKERELVAAITWSGASTYYADSVKGRFTISRDNAKNTVYLQMNSLKPEDTAVYYCAAESVDNIYYGFDYWGQGTQVTVSS"
Key: high polyreactivity

Exercise: Using the record for "QVQLVESGGGLVQAGGSLRLTCAASGYIFSTYAMGSYRQAPGKERELVASISENGGSTYYADSVKGRFTISRDNAKNTVYLQMNSLKPEDTAVDYCNADAYVDVDDGDYWGEGTQVTVSS" , state its measured polyreactivity (PSR sort gate).
Key: low polyreactivity

Exercise: Give polyreactivity (PSR sort gate) for "QVKLVESGGGIVQAGGSLRLSCAASGRTFGRNAMGWYRQAPGKERELVASITKRGGSTYYADSVKGRFTISRDNAKDTVYLQMNSLKPEDTAVYYCAVEAYDYWGQGTQVTVSS"
Key: high polyreactivity

Exercise: Complete the entry with polyreactivity (PSR sort gate) for "QVQLVESGGGLVQAGGSLRLSCAASGRTFYYYAMGWYRQAPGKERELVAAISGSGTNTYYADSVKGRFTISRDNAKNTVYLQMNSLKPEDTAVYYCAAEYFGFYTDGGVFDLYYWGQGTQVTVSS"
Key: low polyreactivity

Exercise: Tell me its polyreactivity (PSR sort gate) given "QVQLVESGGGLVQAGGSLRLSCAASGRIFYYYAMGWYRQAPGKERELVAAINRSGGSTYYADSVKGRFTISRDNAKNTVYLQMNSLKPEDTAVYYCASYDYWGQGTQVTVSS" as the entry.
Key: high polyreactivity
